Biological target: T1, PUF4 RNA-binding domain (Saccharomyces cerevisiae, UniProt P25339 537-888)
T1 sequence: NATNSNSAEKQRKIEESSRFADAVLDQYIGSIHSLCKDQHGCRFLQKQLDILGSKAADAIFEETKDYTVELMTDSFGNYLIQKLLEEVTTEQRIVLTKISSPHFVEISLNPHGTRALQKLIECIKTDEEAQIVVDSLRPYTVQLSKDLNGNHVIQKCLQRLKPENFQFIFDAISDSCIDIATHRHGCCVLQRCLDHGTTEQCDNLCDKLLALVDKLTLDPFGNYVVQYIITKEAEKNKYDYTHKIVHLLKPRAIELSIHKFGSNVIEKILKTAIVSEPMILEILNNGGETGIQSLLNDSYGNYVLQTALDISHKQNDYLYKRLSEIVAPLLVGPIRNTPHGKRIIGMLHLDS
Assay: Mg; RNA-MaP; 20 mM Na-HEPES pH 7.4, 30 mM KOAc, 0.75 mM MgCl2, 0.1% Tween-20, 5% glycerol, 0.1 mg/mL BSA, 2 mM DTT; 25 C; 0.0125-409.6 nM protein
Settings: tags: N-His6-TEV cleaved; C-SNAP kept, Cy3B-labelled; label: tethered on chip by stalled RNA polymerase
Experimental readout: pKd
Please keep in mind that pKd is minus log10 of the molar concentration; only the number is needed.

// known answers, use as guide
Id_ii_S4_P3E.3_K3.2_C3.2_H3.2_A3.1_F3.1_T3.2_[A10C] (ssRNA) RNA: UUUGACAACUGAUCGUUCUUUCUCUUAUAUAUAUCUUCUUUCUCGAUCAGUUGUCUUU	6.98
Ib_S2_P3E.1_K3.1_C3.1_H3.1_A3.1_[A6G]_F3.1_[A8T]_T3.1 (ssRNA) RNA: UUUGAUUAAUAUGAUAUCGUUCUUUCUUGUAUGUUUUCUUUCUCGAUAUCAUAUUAAUCUUU	7.65
UCUCUUUGUAUAGCUCUCUU (ssRNA) [Ic_S1_P3E.1_K3.1_C3.1_H3.1_A3.1_F3.1_[T7G]_[A8C]_T3.1]	7.09
Id_ii_S2_P3E.3_K3.2_C3.2_[C-2T]_H3.2_A3.1_F3.1_T3.2_[T9A]_[A10T] (ssRNA) RNA: UUUGAUUAAUAUGAUAUCGUUCUUUCUUUUAUAUAUAAUUUCUUUCUCGAUAUCAUAUUAAUCUUU	6.36
UCUCUUUAUAUAUUAUUAGUUCUCUU (ssRNA) [Id_ii_S1_P5E.3_K5.2_C5.2_[C-2T]_[T-1A]_H5.2_A5.1_F5.1_T5.2_[T11G]_[A12T]]	7.65

In the following, a different binder is considered.
[ask] pKd for Ib_S4_P5E.1_K5.1_C5.1_H5.1_[G2C]_[A4G]_A5.1_F5.1_T5.1 (ssRNA) RNA: UUUGACAACUGAUCGUUCUUUCUUCUGUUAUUAUUCUUUCUCGAUCAGUUGUCUUU ?
[reply] 6.34
